Biological target: MyD88^TIR (Homo sapiens, UniProt Q99836)
Construct: MyD88 (residues 148–296); 6xHis; made in house; host or cells: E. coli BL21 (DE3)
Sequence (Q99836 148-296): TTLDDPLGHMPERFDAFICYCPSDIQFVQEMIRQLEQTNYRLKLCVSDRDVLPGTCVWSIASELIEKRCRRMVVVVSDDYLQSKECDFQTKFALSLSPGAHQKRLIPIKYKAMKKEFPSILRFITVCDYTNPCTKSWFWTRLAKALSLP
Assay: T‐Surf phage library (P8 and P3) selection against MyD88^TIR, four rounds, NGS read counts
Assay type: binding
Details: P8_MyD88: rank by NGS read count after grouping
MEASURED_PARAMETER: Rank (after)

INSERT INTO measurements (item_sequence, assay_target, measured_parameter, measured_value) VALUES
  ('DPQVPEWFYNRLFCQL', 'MyD88^TIR (Homo sapiens, UniProt Q99836)', 'Rank (after)', 959),
  ('YLLLRVLQTIFLRRTD', 'MyD88^TIR (Homo sapiens, UniProt Q99836)', 'Rank (after)', 898),
  ('DPHGLEWIYERLVSLF', 'MyD88^TIR (Homo sapiens, UniProt Q99836)', 'Rank (after)', 923),
  ('WALDDLLQILQARELF', 'MyD88^TIR (Homo sapiens, UniProt Q99836)', 'Rank (after)', 988),
  ('DPQLLDWLYERLRRPV', 'MyD88^TIR (Homo sapiens, UniProt Q99836)', 'Rank (after)', 999),
  ('PQELECIYKRLVSLIL', 'MyD88^TIR (Homo sapiens, UniProt Q99836)', 'Rank (after)', 1011),
  ('SPLSYMWLDELVEIME', 'MyD88^TIR (Homo sapiens, UniProt Q99836)', 'Rank (after)', 944),
  ('DPQELVWRYERLVSLF', 'MyD88^TIR (Homo sapiens, UniProt Q99836)', 'Rank (after)', 962),
  ('YAASPWWFDELVKILE', 'MyD88^TIR (Homo sapiens, UniProt Q99836)', 'Rank (after)', 906),
  ('YASSSWALLELSKIFEAM', 'MyD88^TIR (Homo sapiens, UniProt Q99836)', 'Rank (after)', 994),
  ('PQDLGWYYERLVSLIL', 'MyD88^TIR (Homo sapiens, UniProt Q99836)', 'Rank (after)', 888),
  ('DWEWDYRLPNLEGPPG', 'MyD88^TIR (Homo sapiens, UniProt Q99836)', 'Rank (after)', 891),
  ('VQWDDSWFWEKLLYA', 'MyD88^TIR (Homo sapiens, UniProt Q99836)', 'Rank (after)', 1018),
  ('DPQDLDWFYETSGEPD', 'MyD88^TIR (Homo sapiens, UniProt Q99836)', 'Rank (after)', 911),
  ('LGYQLIDWEYFVGIEN', 'MyD88^TIR (Homo sapiens, UniProt Q99836)', 'Rank (after)', 937),
  ('YLLLSVLHTRSARGYV', 'MyD88^TIR (Homo sapiens, UniProt Q99836)', 'Rank (after)', 925),
  ('WALGELLQILQARERC', 'MyD88^TIR (Homo sapiens, UniProt Q99836)', 'Rank (after)', 943),
  ('DPHDLQWLYERLVSLI', 'MyD88^TIR (Homo sapiens, UniProt Q99836)', 'Rank (after)', 985);
